I'd appreciate it if you could supply inhibition values for the items below.
Molecular target: 6-phosphogluconate dehydrogenase, decarboxylating (Homo sapiens) (UniProt P52209)
Sequence (P52209 whole entry, looked up): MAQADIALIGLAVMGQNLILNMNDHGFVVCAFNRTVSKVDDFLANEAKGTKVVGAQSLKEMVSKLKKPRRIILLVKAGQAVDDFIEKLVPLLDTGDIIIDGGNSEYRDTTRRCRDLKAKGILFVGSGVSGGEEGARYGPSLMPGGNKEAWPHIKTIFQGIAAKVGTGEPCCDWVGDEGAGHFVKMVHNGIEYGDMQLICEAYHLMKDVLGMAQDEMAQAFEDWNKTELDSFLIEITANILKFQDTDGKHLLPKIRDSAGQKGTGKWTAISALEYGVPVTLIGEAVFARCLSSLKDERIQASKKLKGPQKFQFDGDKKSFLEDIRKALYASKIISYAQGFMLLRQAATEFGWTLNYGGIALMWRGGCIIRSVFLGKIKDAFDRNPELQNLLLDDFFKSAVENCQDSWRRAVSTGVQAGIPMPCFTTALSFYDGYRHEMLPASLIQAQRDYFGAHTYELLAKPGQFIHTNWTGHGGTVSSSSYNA
Assay: 6PGD enzyme inhibitors, primary screen, biochemical, human, recombinant enzyme, NADPH absorbance (AID 1159550)
Details: recombinant 6PGD, NADPH absorbance 341 nm; at 10 µM; stronger effect = higher value
Calls of active or inactive are those of the source.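 The calls were made as follows: active = at least 20% inhibition of 6-phosphogluconate dehydrogenase activity; inactive = the rest.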

Request: Look up inhibition: C=C(C)[C@H]1CN[C@H](C(=O)O)[C@H]1CC(=O)O
Result: 2.88% (inactive)

Request: Look up inhibition: CC(C)[N+](C)(CCC(C(N)=O)(c1ccccc1)c1ccccc1)C(C)C
Result: -13.2% (inactive)

Request: Look up inhibition: O=S1OCC2C(CO1)C1(Cl)C(Cl)=C(Cl)C2(Cl)C1(Cl)Cl (stereo not given)
Result: 5.97% (inactive)

Request: Look up inhibition: CO[C@H]1C[C@H](O[C@H]2CC[C@@]3(C)[C@H](CC[C@@H]4[C@@H]3CC[C@]3(C)[C@@H](C5=CC(=O)OC5)[C@@H](OC(C)=O)C[C@]43O)C2)O[C@@H](C)[C@@H]1O
Result: 5.8% (inactive)

Request: Look up inhibition: O=C1NC(=O)C(=O)C(=O)N1
Result: -13.9% (inactive)

Request: Look up inhibition: O=[N+]([O-])O[C@H]1CO[C@H]2[C@@H]1OC[C@H]2O[N+](=O)[O-]
Result: -5.58% (inactive)

Request: Look up inhibition: CNC(=O)N(C)c1nnc(C(C)(C)C)s1
Result: -12.3% (inactive)

Request: Look up inhibition: COc1cc2ccc(=O)oc2c2ccoc12
Result: 13.8% (inactive)

Request: Look up inhibition: COc1ccc(C(=O)O)cc1OC
Result: 7.84% (inactive)

Request: Look up inhibition: Clc1ccc(CSC(Cn2ccnc2)c2ccc(Cl)cc2Cl)cc1 (stereo not given)
Result: 1.36% (inactive)

---

System: Aerobactin synthetase IucA (Klebsiella pneumoniae hvKP1)
Assay: Biochemical IucA enzyme inhibition primary screen of the Spectrum library (AID 1346200);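 also: 100% = wells without compound and 0% = wells lacking enzyme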
Details: malachite green pyrophosphate, A620, at 8 µM, stronger effect = lower value
I'd appreciate it if you could supply activity remaining values for the items below.
Give just the number in %; leave the unit off.

Request: Look up activity remaining: CO[C@H]1CC(O[C@@H]2/C(C)=C/C[C@@H]3C[C@@H](C[C@]4(CC[C@H](C)[C@@H](C5CCCCC5)O4)O3)OC(=O)[C@@H]3C=C(C)/C(=N/O)[C@H]4OC/C(=C\C=C\[C@@H]2C)[C@]43O)O[C@@H](C)C1O (stereo partly drawn)
Result: 119

Request: Look up activity remaining: C=C[C@@H](C1=CC(=O)C(OC)=C(OC)C1=O)c1ccccc1
Result: 128

Request: Look up activity remaining: COc1ccc2c(c1)OC1(O)COc3cc(OC)c(OC)cc3C1=C2 (stereo not drawn)
Result: 107

Request: Look up activity remaining: CCOC(=O)C(Cc1ccc(O)cc1)NC(C)=O (stereo not drawn)
Result: 98.7

Request: Look up activity remaining: CC(=O)NCCc1c[nH]c2ccc(O)cc12
Result: 113

Request: Look up activity remaining: COc1ccc(Cl)cc1C(=O)NCCc1ccc(S(=O)(=O)NC(=O)NC2CCCCC2)cc1
Result: 91.3

Request: Look up activity remaining: NNC(=O)c1ccncc1
Result: 106

Request: Look up activity remaining: C=C(C)C1CC=C(CO)CC1 (stereo not drawn)
Result: 117

Request: Look up activity remaining: CC1(C)S[C@@H]2C(N3C(=O)[C@@H](c4ccccc4)NC3(C)C)C(=O)N2[C@H]1C(=O)O (stereo partly drawn)
Result: 108

Request: Look up activity remaining: COc1cc(OC)c2c(=O)c(O)c(-c3ccc(OC)c(OC)c3)oc2c1
Result: 107

Request: Look up activity remaining: CC(C)CCCC(C)C1CCC2C3CC(=O)[C@H]4C[C@@H](O)CC[C@]4(C)C3CC[C@]12C (stereo partly drawn)
Result: 121

Request: Look up activity remaining: COC(=O)CCC(C)[C@H]1CCC2C3C(C[C@H](O)[C@@]21C)[C@@]1(C)CC[C@@H](O)C[C@H]1C[C@H]3O (stereo partly drawn)
Result: 105

Request: Look up activity remaining: O=C(O)c1cc2cc(Cc3cccnc3)ccc2o1
Result: 121

Request: Look up activity remaining: CC(=O)NC1SCCC1=O (stereo not drawn)
Result: 112

Request: Look up activity remaining: O=c1cc(-c2ccc(O)cc2)oc2cc(O)ccc12
Result: 102

Request: Look up activity remaining: COc1cc2c(cc1OC)-c1c(oc3cc(O)cc(O)c3c1=O)CO2
Result: 90.7

Request: Look up activity remaining: CC(=O)O[C@@H]1C[C@@]23C[C@@]24CC[C@H](O[C@@H]2OC[C@@H](O)[C@H](O)[C@H]2O)C(C)(C)C4CCC3[C@]2(C)C[C@@H]3OC4(C[C@@H](C)[C@@H]3[C@@]12C)O[C@H](O)[C@]1(C)O[C@H]41 (stereo partly drawn)
Result: 87.7

Request: Look up activity remaining: C[C@H]1[C@H](C)CC[C@]2(C(=O)O)CC[C@]3(C)C(=CCC4[C@@]5(C)C[C@@H](O)[C@H](O)[C@@](C)(CO)C5CC[C@]43C)[C@H]12 (stereo partly drawn)
Result: 102

---

Experiment: ovarian cancer cell viability with rucaparib, profiling panel, oncology-focused library, rucaparib conditional (AID 1508598)
Conditions: patient-derived ovarian cancer cells, CellTiter-Glo viability, 144 h; at 0.00122 µM; OCI-P5x cells; with rucaparib 20 µM; 100% = cells with rucaparib alone
The source made the active and inactive calls.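 Rule for the calls: active = normalized viability below 100% at a tested concentration; inactive = the rest.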
Select the matching outcome among active, inactive

Request: Dear all, I need the recorded test outcome for C/C(=C\c1csc(C)n1)[C@H]1C[C@@H]2O[C@]2(C)CCC[C@H](C)[C@H](O)[C@@H](C)C(=O)C(C)(C)[C@H](O)CC(=O)O1 , thank you.
Result: active

Request: Dear all, I need the recorded test outcome for Cn1c(CCCC(=O)O)nc2cc(N(CCCl)CCCl)ccc21 , thank you.
Result: active

Request: Dear all, I need the recorded test outcome for O=S(=O)(CC1CS1)c1ccc(Oc2ccccc2)cc1 (centres undefined) , thank you.
Result: active

Request: Dear all, I need the recorded test outcome for Cc1sc2c(c1C)C(c1ccc(Cl)cc1)=N[C@@H](CC(N)=O)c1nnc(C)n1-2 , thank you.
Result: inactive

---

Experiment: growth inhibition of DIPG glioma cells, dose response, cell-based, SU-DIPG-XVII, MIPE5.0, CellTiter-Glo, qHTS (AID 1347060);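 as to AC50: cells exposed to compound for 48 hours before viability readout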
Details: SU-DIPG-XVII viability, CellTiter-Glo ATP luminescence
Inconclusive results are not listed. Calls of active or inactive are those of the source. Cut-off not given; nearly all actives show AC50 up to about 26 µM.
Select the matching outcome among yes = active, no = inactive

Request: Dear all, I need the recorded test outcome for COc1cc2cc(c1Cl)N(C)C(=O)C[C@H](OC(=O)C(C)C)[C@]1(C)O[C@@H]1[C@H](C)[C@@H]1C[C@@](O)(NC(=O)O1)[C@H](OC)/C=C/C=C(\C)C2 , thank you.
Result: no

Request: Dear all, I need the recorded test outcome for Cc1cc(SCc2sc(-c3ccc(C(F)(F)F)c(F)c3)nc2C)ccc1OCC(=O)O , thank you.
Result: no

Request: Dear all, I need the recorded test outcome for O=C(NCCCNc1nc(Nc2ccc(N3CCOCC3)cc2)ncc1C1CC1)C1CCC1 , thank you.
Result: yes

Request: Dear all, I need the recorded test outcome for C[C@@H]1C[C@@H]([C@H](O)CC2CC(=O)NC(=O)C2)C(=O)[C@@H](C)C1 , thank you.
Result: yes

---

Test: sensitizers of A549 cells to miR-34 induction, primary screen, imaging, A549 dox-inducible miR-34, nuclei and caspase counts (AID 1347080)
Conditions: A549 miR-34 inducible, Hoechst nuclei count, 48 h; measured here: relative caspase fold change +Dox/-Dox
readout_type: fold change
// no unit, no text: just the number

Request: Look up fold change: CCCCC/C=C\C/C=C\C/C=C\C/C=C\CCCC(=O)Nc1ccc2c(C)cc(=O)oc2c1
Result: 0.94

Request: Look up fold change: O=C1/C(=C/c2ccccc2)C[C@@]2(O)[C@H]3Cc4ccc(O)c5c4[C@@]2(CCN3CC2CC2)[C@H]1O5
Result: 1.39

Request: Look up fold change: CC(C)(C)[C@@]1(O)C[C@@H]2OC(=O)C[C@@]23C(=O)O[C@H]2OC(=O)C(O)C213 (some centres undefined)
Result: 1.49

Request: Look up fold change: CC1OC(OC2CC(O)[C@]3(CO)[C@H]4C(O)C[C@]5(C)C(C6=CC(=O)OC6)CC[C@]5(O)[C@@H]4CC[C@]3(O)C2)C(O)C(O)C1O (some centres undefined)
Result: 1.17

Request: Look up fold change: CC(C)NCC(O)c1ccccc1Cl (centres undefined)
Result: 0.533

Request: Look up fold change: CCCCCC(=O)N[C@H]1CCOC1=O
Result: 0.721

Request: Look up fold change: COc1ccc(CN2CCNCC2)c(OC)c1OC
Result: 1.29

Request: Look up fold change: Oc1ccc2c3c1O[C@H]1c4c(c5ccccc5n4Cc4ccccc4)C[C@@]4(O)C(C2)N(CC2CC2)CC[C@]314
Result: 1.27

Request: Look up fold change: C#C[C@@H]1CC2C3CCC4=C[C@@H](OC(C)=O)CCC4C3CC[C@]2(C)[C@H]1OC(C)=O (some centres undefined)
Result: 3.71
